target: beta-catenin/TCF4 (Homo sapiens, UniProt P35222)
Construct: expressed in transfected cells; host or cells: HEK293 cells
Sequence (P35222 1-781): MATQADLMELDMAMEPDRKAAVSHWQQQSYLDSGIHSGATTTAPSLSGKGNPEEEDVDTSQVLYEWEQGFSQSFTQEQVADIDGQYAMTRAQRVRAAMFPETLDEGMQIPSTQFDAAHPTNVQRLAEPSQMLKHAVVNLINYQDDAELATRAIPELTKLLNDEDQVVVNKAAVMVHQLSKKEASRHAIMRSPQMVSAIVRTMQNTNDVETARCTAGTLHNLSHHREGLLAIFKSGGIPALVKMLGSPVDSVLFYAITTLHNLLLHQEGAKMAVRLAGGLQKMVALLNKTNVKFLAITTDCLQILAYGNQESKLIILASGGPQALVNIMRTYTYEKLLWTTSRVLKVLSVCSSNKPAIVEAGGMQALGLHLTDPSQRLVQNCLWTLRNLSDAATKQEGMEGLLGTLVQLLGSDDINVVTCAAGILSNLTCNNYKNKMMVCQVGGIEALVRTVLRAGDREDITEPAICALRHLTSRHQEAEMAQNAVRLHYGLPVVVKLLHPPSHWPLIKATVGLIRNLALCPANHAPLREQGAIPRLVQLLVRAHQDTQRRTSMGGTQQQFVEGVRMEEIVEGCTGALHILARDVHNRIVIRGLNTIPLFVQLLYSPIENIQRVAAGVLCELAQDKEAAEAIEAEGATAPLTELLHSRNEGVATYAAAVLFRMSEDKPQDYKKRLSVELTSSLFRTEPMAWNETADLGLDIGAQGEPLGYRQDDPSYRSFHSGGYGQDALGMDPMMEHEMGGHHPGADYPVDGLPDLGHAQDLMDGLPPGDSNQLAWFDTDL
test name: Nano-BRET target engagement assay (HEK293 cells)
Format: cell-based
condition info: read-out: NanoBRET Abs IC50
measurement label: IC50

# input Requested read-out: IC50. Entry: Ac-PL3-Asp-Npg-B5-Asp-4F3Me2COOHF-Aib-Ala-Phe-Lys*3-PyrS2-2F3MeF-BztA-GlnR*3-Ala-NH2 [I-205]
# output 3 to 10 µM
